- measurement-target: PDGFRβ (Rattus norvegicus (Rat), UniProt Q05030)
- Sequence (Q05030 32-1097): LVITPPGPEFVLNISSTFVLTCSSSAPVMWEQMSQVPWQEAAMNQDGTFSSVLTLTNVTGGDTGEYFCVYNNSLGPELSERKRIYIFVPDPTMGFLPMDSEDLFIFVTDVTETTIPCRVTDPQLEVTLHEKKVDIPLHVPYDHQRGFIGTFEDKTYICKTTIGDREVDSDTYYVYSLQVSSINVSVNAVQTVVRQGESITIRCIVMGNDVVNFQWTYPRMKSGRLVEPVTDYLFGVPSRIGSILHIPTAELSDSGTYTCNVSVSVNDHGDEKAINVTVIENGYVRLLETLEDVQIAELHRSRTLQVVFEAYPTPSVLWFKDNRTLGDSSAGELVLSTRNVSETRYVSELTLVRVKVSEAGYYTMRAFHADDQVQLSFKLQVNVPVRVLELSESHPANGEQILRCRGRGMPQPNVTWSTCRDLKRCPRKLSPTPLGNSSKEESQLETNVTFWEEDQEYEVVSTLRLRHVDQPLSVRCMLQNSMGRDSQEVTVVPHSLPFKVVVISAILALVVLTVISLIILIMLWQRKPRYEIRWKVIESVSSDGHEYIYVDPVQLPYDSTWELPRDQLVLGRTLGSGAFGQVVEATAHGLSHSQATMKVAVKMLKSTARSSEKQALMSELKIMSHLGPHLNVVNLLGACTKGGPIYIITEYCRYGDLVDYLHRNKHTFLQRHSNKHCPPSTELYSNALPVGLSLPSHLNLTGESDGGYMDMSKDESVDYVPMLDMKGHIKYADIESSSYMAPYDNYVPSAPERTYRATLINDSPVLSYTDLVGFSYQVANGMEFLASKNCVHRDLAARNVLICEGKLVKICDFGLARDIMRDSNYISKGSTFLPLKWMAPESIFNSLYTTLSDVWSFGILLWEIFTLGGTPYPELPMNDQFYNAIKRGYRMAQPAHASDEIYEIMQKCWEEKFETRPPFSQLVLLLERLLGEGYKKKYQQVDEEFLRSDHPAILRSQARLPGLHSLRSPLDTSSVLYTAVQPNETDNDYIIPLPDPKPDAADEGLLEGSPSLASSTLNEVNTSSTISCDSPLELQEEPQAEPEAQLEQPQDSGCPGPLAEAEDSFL
- experiment-summary: PDGFRβ Cellular Assay (PDGFRb P-Y751 HTRF in A10 cells stimulated with PDGF-BB)
- Format: cell-based
- particulars: read-out: PDGFR Cellular IC50
result-type: pIC50
FYI, pIC50 means -log10 of a concentration in mol per litre.

Input line: For Cc1ncc(C(=O)NCCN2CCCC2(C)C)cc1NC(=O)c1cnn2cc(-c3cnn(C)c3C)sc12 [Example 173] , what is its reported pIC50?
Output line: 7.93

Input line: For Cc1ncc(C(=O)NCCN2CCCC2)cc1NC(=O)c1cnn2cc(-c3cn(C)nc3C(F)(F)F)sc12 [Example 227] , what is its reported pIC50?
Output line: 6.36

Input line: For Cc1cc(C(=O)NCCCN2CCCC2(C)C)sc1NC(=O)c1cnn2cc(-c3cnn(C)c3)sc12 [Example 201] , what is its reported pIC50?
Output line: 5.84

Input line: For COCCn1cc(-c2cn3ncc(C(=O)Nc4cc(NC(=O)CN5CC(C)(C)C5)cnc4C)c3s2)cn1 [Example 261] , what is its reported pIC50?
Output line: 8.38

* * *

- measurement-target: Tb-labeled inactive PDGFRβ (Homo sapiens (Human), UniProt P09619)
- Sequence (P09619 33-1106): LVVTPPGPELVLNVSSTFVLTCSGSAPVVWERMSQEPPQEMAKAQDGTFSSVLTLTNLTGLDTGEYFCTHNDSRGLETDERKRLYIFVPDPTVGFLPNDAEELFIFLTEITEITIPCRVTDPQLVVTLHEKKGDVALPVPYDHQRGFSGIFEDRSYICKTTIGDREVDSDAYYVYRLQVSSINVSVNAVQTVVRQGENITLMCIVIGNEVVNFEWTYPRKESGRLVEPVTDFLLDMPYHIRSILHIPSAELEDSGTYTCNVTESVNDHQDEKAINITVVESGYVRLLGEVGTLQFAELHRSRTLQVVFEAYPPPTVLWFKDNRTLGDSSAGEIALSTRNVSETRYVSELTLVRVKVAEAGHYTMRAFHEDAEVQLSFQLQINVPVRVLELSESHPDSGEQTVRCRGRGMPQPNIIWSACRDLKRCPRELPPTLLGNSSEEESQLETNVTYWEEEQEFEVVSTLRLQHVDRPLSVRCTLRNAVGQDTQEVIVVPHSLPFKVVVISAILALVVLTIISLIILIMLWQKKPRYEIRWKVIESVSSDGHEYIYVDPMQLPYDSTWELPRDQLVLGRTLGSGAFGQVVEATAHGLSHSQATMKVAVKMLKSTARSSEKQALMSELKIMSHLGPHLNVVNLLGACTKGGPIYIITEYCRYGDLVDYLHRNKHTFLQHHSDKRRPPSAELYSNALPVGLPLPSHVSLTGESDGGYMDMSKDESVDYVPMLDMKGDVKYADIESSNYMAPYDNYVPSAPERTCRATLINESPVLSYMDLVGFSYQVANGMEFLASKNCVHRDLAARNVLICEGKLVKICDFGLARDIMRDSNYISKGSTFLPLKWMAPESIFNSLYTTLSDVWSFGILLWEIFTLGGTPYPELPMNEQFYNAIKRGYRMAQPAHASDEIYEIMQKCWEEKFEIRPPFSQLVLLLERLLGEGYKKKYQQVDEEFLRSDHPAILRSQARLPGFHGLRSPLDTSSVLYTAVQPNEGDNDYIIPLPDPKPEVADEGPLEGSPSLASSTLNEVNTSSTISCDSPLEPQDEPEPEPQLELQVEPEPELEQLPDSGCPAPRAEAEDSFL
- experiment-summary: PDGFRβ LanthaScreen Assay
- particulars: read-out: PDGFR Lantha IC50
Measured pIC50, listed per entry for reference.
FYI, pIC50 means -log10 of a concentration in mol per litre.

// worked examples, pIC50 included
• Cc1ncc(NC(=O)CN2[C@H](C)COC[C@H]2C)cc1NC(=O)c1cnn2cc(-c3cnn(C)c3)sc12 = 8.32
• Cc1ncc(NC(=O)CN2CC(C)(C)C2)cc1NC(=O)c1cnn2cc(-c3cnc4n3CCOC4)sc12 = 8.18
• Cc1ncc(NC(=O)CN2Cc3ncsc3C2)cc1NC(=O)c1cnn2cc(-c3cnn(C)c3)sc12 = 8.05
• COCCn1cc(-c2cn3ncc(C(=O)Nc4cc(NC(=O)CN5CCC[C@@H]5C)cnc4C)c3s2)cn1 = 7.79

Input line: For Cc1ncc(NC(=O)OC[C@@H]2CCCN2C)cc1NC(=O)c1cnn2cc(-c3cccc4c3cnn4C)sc12 , what is its reported pIC50?
Output line: 8.59

Input line: For Cc1ncc(NC(=O)CN2CCCC23COC3)cc1NC(=O)c1cnn2cc(-c3cnn(C)c3)sc12 , what is its reported pIC50?
Output line: 8.09

Input line: For Cc1ncc(NC(=O)CN2CCC3(COC3)C2)cc1NC(=O)c1cnn2cc(-c3cnn(C)c3)sc12 , what is its reported pIC50?
Output line: 8.02

Input line: For Cc1ncc(NC(=O)C2CN(C(C)C)C2)cc1NC(=O)c1cnn2cc(-c3cnn(C)c3C)sc12 , what is its reported pIC50?
Output line: 8.35

Input line: For Cc1ncc(NC(=O)CN2CCC(C)C2)cc1NC(=O)c1cnn2cc(-c3cn(C)nc3C)sc12 (stereo not drawn) , what is its reported pIC50?
Output line: 8.46

Input line: For Cc1ncc(C(=O)NCCN2CCCC23CCC3)cc1NC(=O)c1cnn2cc(-c3cnn(C)c3C)sc12 , what is its reported pIC50?
Output line: 8.66

Input line: For Cc1ncc(C(=O)NCCN2CCCC23CCC3)cc1NC(=O)c1cnn2cc(-c3cnn4c3CCC4)sc12 , what is its reported pIC50?
Output line: 9.10

Values compiled from patent US20240109917A1.
